Test system: L1210
testProtocol: Antitumor activity against mouse L1210 cells allografted in BDF1 mouse assessed as increase of host life span at 200 mg/kg, po qd for 5 days
Assay type: functional
Known Activity of a selection of molecules
observedProperty: Activity (%)

{"smilesCode": "CCCCCCCCCCCCCCCC(=O)OC[C@H]1O[C@@H]2[C@H](Oc3nc(=N)ccn32)[C@@H]1OC(=O)CCCCCCCCCCCCCCC.Cl", "unitLabel": "%", "number": 22.5}
{"smilesCode": "Cl.N=c1ccn2c(n1)O[C@@H]1[C@H](OC(=O)c3ccccc3Cl)[C@@H](COC(=O)c3ccccc3Cl)O[C@H]12", "unitLabel": "%", "number": 28.2}
{"smilesCode": "Cl.N=c1ccn2c(n1)O[C@@H]1[C@H](OC(=O)c3ccc(Cl)cc3)[C@@H](COC(=O)c3ccc(Cl)cc3)O[C@H]12", "unitLabel": "%", "number": 21.8}

====

Known Activity of a selection of molecules
Test system: L1210
testProtocol: Antitumor activity against mouse L1210 cells allografted in BDF1 mouse assessed as increase of host life span at 100 mg/kg, ip qd for 5 days
Assay type: functional
assaySetup: route intraperitoneal

{"smilesCode": "F[B-](F)(F)F.[NH2+]=c1ccn2c(n1)O[C@@H]1[C@H](OC(=O)c3cccc4ccccc34)[C@@H](COC(=O)c3cccc4ccccc34)O[C@H]12", "comparisonOperator": "=", "Activity (%)": 82.1}
{"smilesCode": "CCCCCCCCCCCCOCCC(=O)OC[C@H]1O[C@@H]2[C@H](Oc3nc(=N)ccn32)[C@@H]1OC(=O)CCOCCCCCCCCCCCC.Cl", "comparisonOperator": ">", "Activity (%)": 595}
{"smilesCode": "CCCCC(=O)O[C@H]1[C@H]2Oc3nc(=N)ccn3[C@@H]2O[C@@H]1COP(=O)(O)O", "comparisonOperator": "=", "Activity (%)": 64.6}

====

testProtocol: Toxicity in ip dosed ICR mouse up to 3 weeks
Type: organism-based
assaySetup: in vivo
Known MTD at 504 h of a selection of molecules

{"smilesCode": "CCCCSCCCCCCCCCCC(=O)OC[C@H]1O[C@@H]2[C@H](Oc3nc(=N)ccn32)[C@@H]1OC(=O)CCCCCCCCCCSCCCC.Cl", "unitLabel": "mg/kg", "MTD at 504 h": 500}
{"smilesCode": "CCCCCCCCCCCCOCCC(=O)OC[C@H]1O[C@@H]2[C@H](Oc3nc(=N)ccn32)[C@@H]1OC(=O)CCOCCCCCCCCCCCC.Cl", "unitLabel": "mg/kg", "MTD at 504 h": 500}
{"smilesCode": "CCCCCCCCOc1ccc(C(=O)OC[C@H]2O[C@@H]3[C@H](Oc4nc(=N)ccn43)[C@@H]2OC(=O)c2ccc(OCCCCCCCC)cc2)cc1.Cl", "unitLabel": "mg/kg", "MTD at 504 h": 300}
{"smilesCode": "Cl.N=c1ccn2c(n1)O[C@@H]1[C@H](OC(=O)/C=C/c3ccco3)[C@@H](COC(=O)/C=C/c3ccco3)O[C@H]12", "unitLabel": "mg/kg", "MTD at 504 h": 300}
{"smilesCode": "F[B-](F)(F)F.[NH2+]=c1ccn2c(n1)O[C@@H]1[C@H](OC(=O)c3cccc4ccccc34)[C@@H](COC(=O)c3cccc4ccccc34)O[C@H]12", "unitLabel": "mg/kg", "MTD at 504 h": 500}

====

Tested on: L1210
testProtocol: Antitumor activity against mouse L1210 cells allografted in BDF1 mouse assessed as increase of host life span at 6.25 mg/kg, ip qd for 5 days
Format: functional
assaySetup: route intraperitoneal
observedProperty: Activity (%)

{"smilesCode": "CCCCCCCCCCCCOCCC(=O)OC[C@H]1O[C@@H]2[C@H](Oc3nc(=N)ccn32)[C@@H]1OC(=O)CCOCCCCCCCCCCCC.Cl", "targetOfAssay": "L1210", "observedProperty": "Activity", "number": 30.8}
{"smilesCode": "CCCCCCCC(=O)O[C@H]1[C@H]2Oc3nc(=N)ccn3[C@@H]2O[C@@H]1COP(=O)(O)O", "targetOfAssay": "L1210", "observedProperty": "Activity", "number": 6.3}
{"smilesCode": "CCCCC(=O)O[C@H]1[C@H]2Oc3nc(=N)ccn3[C@@H]2O[C@@H]1COP(=O)(O)O", "targetOfAssay": "L1210", "observedProperty": "Activity", "number": 15.8}
{"smilesCode": "CCCCCCCCCCCCCCCC(=O)OC[C@H]1O[C@@H]2[C@H](Oc3nc(=N)ccn32)[C@@H]1OC(=O)CCCCCCCCCCCCCCC.Cl", "targetOfAssay": "L1210", "observedProperty": "Activity", "number": 59}
{"smilesCode": "CCCC(=O)NCCCCCCCCCCC(=O)OC[C@H]1O[C@@H]2[C@H](Oc3nc(=N)ccn32)[C@@H]1OC(=O)CCCCCCCCCCNC(=O)CCC.Cl", "targetOfAssay": "L1210", "observedProperty": "Activity", "number": 20.5}
{"smilesCode": "F[B-](F)(F)F.[NH2+]=c1ccn2c(n1)O[C@@H]1[C@H](OC(=O)CCCCCCCCCCN3C(=O)c4ccccc4C3=O)[C@@H](COC(=O)CCCCCCCCCCN3C(=O)c4ccccc4C3=O)O[C@H]12", "targetOfAssay": "L1210", "observedProperty": "Activity", "number": 23.1}
{"smilesCode": "CCCCCCCCCCCOC(=O)CCC(=O)OC[C@H]1O[C@@H]2[C@H](Oc3nc(=N)ccn32)[C@@H]1OC(=O)CCC(=O)OCCCCCCCCCCC.Cl", "targetOfAssay": "L1210", "observedProperty": "Activity", "number": 15.4}
{"smilesCode": "CC(C)(C)c1ccc(C(=O)OC[C@H]2O[C@@H]3[C@H](Oc4nc(=N)ccn43)[C@@H]2OC(=O)c2ccc(C(C)(C)C)cc2)cc1.Cl", "targetOfAssay": "L1210", "observedProperty": "Activity", "number": 26.7}
{"smilesCode": "C=CCCCCCCCCC(=O)OC[C@H]1O[C@@H]2[C@H](Oc3nc(=N)ccn32)[C@@H]1OC(=O)CCCCCCCCC=C.Cl", "targetOfAssay": "L1210", "observedProperty": "Activity", "number": 17.9}
{"smilesCode": "Cl.N=c1ccn2c(n1)O[C@@H]1[C@H](OC(=O)CCCCCCCCCCBr)[C@@H](COC(=O)CCCCCCCCCCBr)O[C@H]12", "targetOfAssay": "L1210", "observedProperty": "Activity", "number": 12.8}
{"smilesCode": "Cc1ccc(S(=O)(=O)NCCCCCCCCCCC(=O)OC[C@H]2O[C@@H]3[C@H](Oc4nc(=[NH2+])ccn43)[C@@H]2OC(=O)CCCCCCCCCCNS(=O)(=O)c2ccc(C)cc2)cc1.F[B-](F)(F)F", "targetOfAssay": "L1210", "observedProperty": "Activity", "number": 12.5}
{"smilesCode": "CCCC(=O)OCCCCCCCCCCC(=O)OC[C@H]1O[C@@H]2[C@H](Oc3nc(=N)ccn32)[C@@H]1OC(=O)CCCCCCCCCCOC(=O)CCC.Cl", "targetOfAssay": "L1210", "observedProperty": "Activity", "number": 5.1}
{"smilesCode": "CCCCCCCCCCCCCCCC(=O)O[C@H]1[C@H]2Oc3nc(=N)ccn3[C@@H]2O[C@@H]1COP(=O)(O)O", "targetOfAssay": "L1210", "observedProperty": "Activity", "number": 27.4}
{"smilesCode": "CCCCSCCCCCCCCCCC(=O)OC[C@H]1O[C@@H]2[C@H](Oc3nc(=N)ccn32)[C@@H]1OC(=O)CCCCCCCCCCSCCCC.Cl", "targetOfAssay": "L1210", "observedProperty": "Activity", "number": 26.7}
{"smilesCode": "F[B-](F)(F)F.[NH2+]=c1ccn2c(n1)O[C@@H]1[C@H](OC(=O)CCCCCCCCCCNC(=O)c3ccccc3)[C@@H](COC(=O)CCCCCCCCCCNC(=O)c3ccccc3)O[C@H]12", "targetOfAssay": "L1210", "observedProperty": "Activity", "number": 38.5}

====

Test system: L1210
testProtocol: Antitumor activity against mouse L1210 cells allografted in BDF1 mouse assessed as increase of host life span at 25 mg/kg, ip qd for 5 days
Type: functional
assaySetup: route intraperitoneal

{"smilesCode": "F[B-](F)(F)F.[NH2+]=c1ccn2c(n1)O[C@@H]1[C@H](OC(=O)CCCCCCCCCCNC(=O)c3ccccc3)[C@@H](COC(=O)CCCCCCCCCCNC(=O)c3ccccc3)O[C@H]12", "Activity, %": 100}
{"smilesCode": "F[B-](F)(F)F.[NH2+]=c1ccn2c(n1)O[C@@H]1[C@H](OC(=O)c3cccc4ccccc34)[C@@H](COC(=O)c3cccc4ccccc34)O[C@H]12", "Activity, %": 35.5}
{"smilesCode": "CCOC(=O)CCC(=O)OC[C@H]1O[C@@H]2[C@H](Oc3nc(=N)ccn32)[C@@H]1OC(=O)CCC(=O)OCC.Cl", "Activity, %": 12.4}
{"smilesCode": "Cl.N=c1ccn2c(n1)O[C@@H]1[C@H](O)[C@@H](CO)O[C@H]12", "Activity, %": 42.3}
{"smilesCode": "CCCC(=O)OCCCCCCCCCCC(=O)OC[C@H]1O[C@@H]2[C@H](Oc3nc(=N)ccn32)[C@@H]1OC(=O)CCCCCCCCCCOC(=O)CCC.Cl", "Activity, %": 66.7}
{"smilesCode": "CCCCCCCC(=O)O[C@H]1[C@H]2Oc3nc(=N)ccn3[C@@H]2O[C@@H]1COP(=O)(O)O", "Activity, %": 50.7}
{"smilesCode": "CC(C)(C)C(=O)O[C@H]1[C@H]2Oc3nc(=N)ccn3[C@@H]2O[C@@H]1COC(=O)CCCCCCC(=O)OC[C@H]1O[C@@H]2[C@H](Oc3nc(=N)ccn32)[C@@H]1OC(=O)C(C)(C)C.Cl", "Activity, %": 25}
{"smilesCode": "CCOCCC(=O)OC[C@H]1O[C@@H]2[C@H](Oc3nc(=N)ccn32)[C@@H]1OC(=O)CCOCC.Cl", "Activity, %": 15.4}
{"smilesCode": "Cl.N=c1ccn2c(n1)O[C@@H]1[C@H](OC(=O)c3ccccc3Cl)[C@@H](COC(=O)c3ccccc3Cl)O[C@H]12", "Activity, %": 25.6}
{"smilesCode": "CCCCSCCCCCCCCCCC(=O)OC[C@H]1O[C@@H]2[C@H](Oc3nc(=N)ccn32)[C@@H]1OC(=O)CCCCCCCCCCSCCCC.Cl", "Activity, %": 164}
{"smilesCode": "CCCCCCCCCCCOC(=O)CCC(=O)OC[C@H]1O[C@@H]2[C@H](Oc3nc(=N)ccn32)[C@@H]1OC(=O)CCC(=O)OCCCCCCCCCCC.Cl", "Activity, %": 43.6}
{"smilesCode": "Cc1ccc(S(=O)(=O)NCCCCCCCCCCC(=O)OC[C@H]2O[C@@H]3[C@H](Oc4nc(=[NH2+])ccn43)[C@@H]2OC(=O)CCCCCCCCCCNS(=O)(=O)c2ccc(C)cc2)cc1.F[B-](F)(F)F", "Activity, %": 90}
{"smilesCode": "Cl.N=c1ccn2c(n1)O[C@@H]1[C@H](OC(=O)CCNC(=O)c3ccccc3)[C@@H](COC(=O)CCNC(=O)c3ccccc3)O[C@H]12", "Activity, %": 2.6}
{"smilesCode": "CCCCCCCCCCCCOCCC(=O)OC[C@H]1O[C@@H]2[C@H](Oc3nc(=N)ccn32)[C@@H]1OC(=O)CCOCCCCCCCCCCCC.Cl", "Activity, %": 118}
{"smilesCode": "C=CCCCCCCCCC(=O)OC[C@H]1O[C@@H]2[C@H](Oc3nc(=N)ccn32)[C@@H]1OC(=O)CCCCCCCCC=C.Cl", "Activity, %": 51.3}
{"smilesCode": "F[B-](F)(F)F.[NH2+]=c1ccn2c(n1)O[C@@H]1[C@H](OC(=O)CCN3C(=O)c4ccccc4C3=O)[C@@H](COC(=O)CCN3C(=O)c4ccccc4C3=O)O[C@H]12", "Activity, %": 2.6}
{"smilesCode": "F[B-](F)(F)F.[NH2+]=c1ccn2c(n1)O[C@@H]1[C@H](OC(=O)CCCCCN3C(=O)c4ccccc4C3=O)[C@@H](COC(=O)CCCCCN3C(=O)c4ccccc4C3=O)O[C@H]12", "Activity, %": 23.1}
{"smilesCode": "CC(=O)O[C@H]1[C@H]2Oc3nc(=N)ccn3[C@@H]2O[C@@H]1COP(=O)(O)O", "Activity, %": 30.7}
{"smilesCode": "CCOc1ccc(C(=O)OC[C@H]2O[C@@H]3[C@H](Oc4nc(=N)ccn43)[C@@H]2OC(=O)c2ccc(OCC)cc2)cc1.Cl", "Activity, %": 33.3}
{"smilesCode": "Cc1ccc(C(=O)OC[C@H]2O[C@@H]3[C@H](Oc4nc(=N)ccn43)[C@@H]2OC(=O)c2ccc(C)cc2)cc1.Cl", "Activity, %": 37.3}
{"smilesCode": "Cl.N=c1ccn2c(n1)O[C@@H]1[C@H](OC(=O)c3cccc(Cl)c3)[C@@H](COC(=O)c3cccc(Cl)c3)O[C@H]12", "Activity, %": 28.2}
{"smilesCode": "CCCCCCCCCCCCCCCC(=O)O[C@H]1[C@H]2Oc3nc(=N)ccn3[C@@H]2O[C@@H]1COP(=O)(O)O", "Activity, %": 116.4}
{"smilesCode": "F[B-](F)(F)F.[NH2+]=c1ccn2c(n1)O[C@@H]1[C@H](OC(=O)CCCCCCCCCCN3C(=O)c4ccccc4C3=O)[C@@H](COC(=O)CCCCCCCCCCN3C(=O)c4ccccc4C3=O)O[C@H]12", "Activity, %": 76.9}
{"smilesCode": "CCOC(=O)CCCCCCCCCCCCCCC(=O)OC[C@H]1O[C@@H]2[C@H](Oc3nc(=N)ccn32)[C@@H]1OC(=O)CCCCCCCCCCCCCCC(=O)OCC.Cl", "Activity, %": 10.7}
{"smilesCode": "CCCC(=O)NCCCCCCCCCCC(=O)OC[C@H]1O[C@@H]2[C@H](Oc3nc(=N)ccn32)[C@@H]1OC(=O)CCCCCCCCCCNC(=O)CCC.Cl", "Activity, %": 51.3}
